- Tested system: Tumor necrosis factor receptor superfamily member 10B (Homo sapiens) (UniProt O14763)
- Sequence (O14763 whole entry, looked up): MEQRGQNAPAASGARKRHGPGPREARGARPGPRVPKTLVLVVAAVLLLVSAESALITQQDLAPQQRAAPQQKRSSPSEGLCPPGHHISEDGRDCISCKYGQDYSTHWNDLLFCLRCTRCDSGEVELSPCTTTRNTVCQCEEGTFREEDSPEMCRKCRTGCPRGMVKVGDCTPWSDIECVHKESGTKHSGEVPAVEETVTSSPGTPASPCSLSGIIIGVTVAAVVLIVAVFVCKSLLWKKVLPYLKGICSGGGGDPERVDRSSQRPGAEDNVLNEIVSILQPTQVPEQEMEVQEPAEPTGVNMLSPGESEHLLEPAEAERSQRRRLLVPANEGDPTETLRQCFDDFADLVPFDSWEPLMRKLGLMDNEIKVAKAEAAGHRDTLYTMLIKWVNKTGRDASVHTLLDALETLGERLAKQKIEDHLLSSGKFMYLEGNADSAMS
- Test protocol: caspase-8 TRAIL sensitization, hit retest, confirmation, cell-based, NB7+caspase-8, with/without TRAIL, luminescence panel (AID 651596)
- Condition context: NB7 neuroblastoma + caspase-8, TRAIL sensitization, luminescence viability, with TRAIL, mean of runs, at 10 µM, stronger effect = higher value
One threshold, 70%, splits the recorded activity values: lower ones are true (1), equal or higher ones are false (0).

In [3]: df
Out[3]:
                                    molecule      group
 0  CN(C)CCCN(C(=O)c1ccc(C(=O)c2ccccc2)cc1)c1nc2ccc(F)cc2s1   true (1)
 1            CCCN(CC(=O)Nc1ccccc1C)C(=O)CCl  false (0)
 2  COc1ccccc1-c1cc2nc(-c3ccccc3)cc(N3CCN(C(=O)c4ccco4)CC3)n2n1  false (0)
 3  NC(CCc1ccccc1)c1csc(NC(=O)Nc2ccccc2Oc2ccccc2)n1 (configuration not stated)  false (0)
 4         O=C(Nc1ccc2[nH]ccc2c1)c1ccc(F)cc1  false (0)
 5        COn1c(SCc2cccc(Cl)c2)nc2ccccc2c1=O   true (1)
 6  N/C(CCS(=O)(=O)c1ccc(Cl)cc1)=N\OC(=O)c1ccccc1C(F)(F)F  false (0)
 7  Cc1cnc(NC(=O)c2ccc(OCC3CCCO3)cc2)s1 (configuration not stated)  false (0)
 8           CCCCCCCC[n+]1cccc2c3ccccc3ccc21  false (0)
 9    Cc1ccc(/C(N)=N/OC(=O)c2ccc(C)cc2Cl)cc1  false (0)
10  C/C(=N\NC(=O)c1ccc(O)cc1)c1cccc(NC(=O)c2ccc(Cl)cc2)c1  false (0)
11  CCS(=O)(=O)c1ncc(Cl)c(C(=O)Nc2ccc(S(=O)(=O)N(C)c3ccccc3)cc2)n1  false (0)
12  CCS(=O)(=O)c1ncc(Cl)c(C(=O)Nc2ccccc2OC)n1  false (0)
13   O=C(Nc1ccc2nc(-c3ccco3)[nH]c2c1)c1cccs1  false (0)
14            CSc1ccc(NC(=O)Nc2cc(C)ccn2)cc1   true (1)
15  CCOC(=O)c1c(NC(=O)CCl)sc(C(=O)N(CC)CC)c1C  false (0)
16  Cc1cc(C)c2c(c1)/C(=C/C(=O)c1ccc(Br)s1)C(=O)N2  false (0)
17  CC1CCC(C(C)C)C(OC(=O)Cn2c(-c3ccc(Cl)cc3)[n+](C)c3ccccc32)C1 (configuration not stated)  false (0)
18     O=C(NO)c1cc(OCC(F)(F)F)ccc1OCC(F)(F)F   true (1)
19  C/C(=N\Nc1nc2ccccc2[nH]1)c1ccc(N2CCOCC2)cc1  false (0)
20  CCN(CC)S(=O)(=O)c1ccc(NC(=O)Nc2cccc(C(F)(F)F)c2)cc1  false (0)
21  CCCNC(=O)c1oc2ccc3c(c2c1C)C(=O)CC(C)(C)O3   true (1)
22  CCCOc1ccc(-c2cn3ccccc3n2)cc1[N+](=O)[O-]   true (1)
23           O=C(Nc1cccc(O)c1)c1noc2c1CCCCC2   true (1)
24          Cc1nc2sc(-c3ccccc3)cc2c(=O)[nH]1  false (0)
25      Nc1c(-c2ccccc2)cnc2cc(-c3ccccc3)nn12  false (0)
26  CC(C)(C)c1ccc(C(=O)O/N=C(\N)c2ccccn2)cc1  false (0)
27  CCOC(=O)/C(=C/c1ccc(OC(F)F)cc1)C1=Nn2c(nnc2-c2ccc(Cl)cc2)SC1  false (0)
28      c1ccc(-c2ccc(-c3cn4c(n3)CCC4)cc2)cc1   true (1)
29  Cc1ccc2nc(-c3ccc(NC(=O)C4CCCO4)cc3)[nH]c2c1 (configuration not stated)  false (0)
30       Cc1ccc(-c2cn3c(=O)cc(C)[nH]c3n2)cc1  false (0)
31          C/C=C/c1ccc(OCCCNC2CCCC2)c(OC)c1   true (1)
32  O=C(Nc1ccc2nc3n(c(=O)c2c1)CCCCC3)c1c(F)ccc([N+](=O)[O-])c1F  false (0)
33              Cc1ccc2oc(-c3cccc(N)c3)nc2c1   true (1)
34               CCOc1ccc(NC(=O)c2ccccn2)cc1  false (0)
35  Cc1onc(-c2ccccc2Cl)c1C(=O)O/N=C(\N)c1cccc([N+](=O)[O-])c1  false (0)
36  CCOC(=O)Cc1csc(NC(=S)NC(=O)c2ccc(Cl)cc2)n1   true (1)
37               O=C(Nc1ccccn1)c1cc2ccccc2o1  false (0)
38           O=c1c2sc(-c3ccccc3)cc2nc2n1CCC2   true (1)
39                Cc1ccccc1Nc1nc(N)nc(CCl)n1  false (0)
40      CN(C)c1ccc(C(=O)Nc2nc3c(s2)CCCC3)cc1   true (1)
41  Cc1cccc(CC(=O)Nc2cc(C)c3c(=O)oc4ccccc4c3n2)c1   true (1)
42         COc1cccc(-c2nnc(-c3ccc(C)o3)o2)c1   true (1)
